Reported values of IC50 for individual entries
Biological target: α4β1 (R&D Systems #5668-A4) (UniProt P13612)
Test: competition ELISA vs VCAM-1
Bridge positions count the residues as written; N and C are the ends. Square brackets hold non-standard residues; d marks the D form. Bip = N[C@@H](Cc1ccc(-c2ccccc2)cc1)C(=O)O; 1Nal = N[C@@H](Cc1cccc2ccccc12)C(=O)O; 2Nal = N[C@@H](Cc1ccc2ccccc2c1)C(=O)O; NMeR = CN[C@@H](CCCNC(=N)N)C(=O)O; β3hE = N[C@@H](CCC(=O)O)CC(=O)O; NMeK = CN[C@@H](CCCCN)C(=O)O; Pen = CC(C)(S)[C@H](N)C(=O)O; dNMeK = CN[C@H](CCCCN)C(=O)O

Binder	IC50
Ac-[Pen][NMeR]SDTL[Pen][2Nal][β3hE][dK]-NH2 (disulfide 1-7 (inferred); also: homodimer via DIG) [SEQ ID NO: 137]	> 1000 nM

// returns reported IC50 for input Ac-[Pen][NMeR]SDTL[Pen][2Nal]Y[dK]-NH2 (disulfide 1-7; also: dimer via DIG) [SEQ ID NO: 23]
> 100 nM

// returns reported IC50 for input Ac-[Pen][NMeR]SDTL[Pen][2Nal][dE][dK]-NH2 (disulfide 1-7; also: dimer via DIG) [SEQ ID NO: 33]
> 100 nM

// returns reported IC50 for input Ac-[Pen][NMeR]SDTL[Pen][2Nal]E[dK]-NH2 (disulfide 1-7; SMILES CC(=O)N[C@@H]1C(=O)N(C)[C@@H](CCCNC(=N)N)C(=O)N[C@@H](CO)C(=O)N[C@@H](CC(=O)O)C(=O)N[C@@H]([C@@H](C)O)C(=O)N[C@@H](CC(C)C)C(=O)N[C@H](C(=O)N[C@@H](Cc2ccc3ccccc3c2)C(=O)N[C@@H](CCC(=O)O)C(=O)N[C@H](CCCCN)C(N)=O)C(C)(C)SSC1(C)C) [Peptide 210]
200 nM

// returns reported IC50 for input Ac-[Pen][NMeR]SDTL[Pen][Bip]E[dK]-NH2 (disulfide 1-7 (inferred); also: homodimer via DIG) [SEQ ID NO: 134]
> 100 nM

// returns reported IC50 for input Ac-[Pen][NMeR]SDTL[Pen][1Nal][dE][dNMeK]-NH2 (disulfide 1-7; also: dimer via DIG) [SEQ ID NO: 38]
> 100 nM

// returns reported IC50 for input Ac-[Pen][NMeR]SDTL[Pen][Bip][β3hE][NMeK]-NH2 (disulfide 1-7 (inferred); also: dimer via DIG linker) [SEQ ID NO: 150]
> 1000 nM

// returns reported IC50 for input Ac-[Pen][NMeR]SDTL[Pen][2Nal][β3hE]-NH2 (disulfide 1-7 (inferred)) [SEQ ID NO: 155]
> 1000 nM
